Biological target: UniProt Q3SYC2
Sequence (Q3SYC2 whole entry): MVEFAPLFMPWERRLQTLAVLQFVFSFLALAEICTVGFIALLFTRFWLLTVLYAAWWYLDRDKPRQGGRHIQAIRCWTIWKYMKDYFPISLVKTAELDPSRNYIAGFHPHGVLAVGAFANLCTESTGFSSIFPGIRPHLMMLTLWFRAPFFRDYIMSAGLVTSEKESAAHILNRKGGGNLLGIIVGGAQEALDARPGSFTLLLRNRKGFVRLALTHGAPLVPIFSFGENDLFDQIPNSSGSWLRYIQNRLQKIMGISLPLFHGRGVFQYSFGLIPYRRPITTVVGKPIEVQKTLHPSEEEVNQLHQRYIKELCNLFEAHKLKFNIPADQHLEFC
Assay: MGAT LCMS Assay (human MGAT-2);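 also: diolein product quantified by LC/MS with positive APCI, expressed as peak area ratio versus an internal standard, and this ratio used to derive IC50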
Format: biochemical
Conditions: human MGAT-2 membranes expressed in Sf9 cells; 2-oleoylglycerol and oleoyl-Coenzyme A; read-out: h-MGAT2 IC50 (nM) LCMS Assay
Doc: threshold 50 nM (exclusive). Items with IC50 beneath it return Satisfied; others return Not satisfied.

Find out if reported IC50 for N#CC1=C(c2ccc3ccccc3c2)CC(c2ccc(OCCCC(F)(F)F)cc2)(C(F)(F)F)NC1=O (stereo not shown) [Example 146] is less than 50 nM Satisfied

Find out if reported IC50 for Cc1ccc(C2=C(NC(=O)c3cc(OCc4ccccc4)no3)C(=O)NC(c3ccc(OCCCC(F)(F)F)cc3)(C(F)(F)F)C2)cc1 (stereo not shown) is less than 50 nM Satisfied

Find out if reported IC50 for Cc1ccc(C2=C(NC(=O)c3nnc(C)o3)C(=O)NC(c3ccc(OCCCC(F)(F)F)cc3)(C(F)(F)F)C2)cc1 (stereo not shown) is less than 50 nM Satisfied

Find out if reported IC50 for Cc1ccc(C2=C(C#N)C(=O)NC(c3ccc(OCCCC(F)(F)F)cc3)(C(F)(F)F)C2(F)F)cc1 (stereo not shown) is less than 50 nM Not satisfied

Find out if reported IC50 for CCCCCCCCNC(=O)C1(C)CC(c2ccc(C)cc2)=C(C(=O)Nc2ccc(OC)cc2)C(=O)N1 (stereo not shown) is less than 50 nM Not satisfied

Find out if reported IC50 for COc1ccc(C2=C(C#N)C(=O)NC(c3ccc(OCCCC(F)(F)F)cc3)(C(F)(F)F)C2)cc1OC (stereo not shown) is less than 50 nM Not satisfied

Find out if reported IC50 for O=C1NC(c2ccc(OCCCCCC(F)(F)F)cc2F)(C(F)(F)F)CC(c2ccc3ccccc3c2)=C1c1nn[nH]n1 (stereo not shown) is less than 50 nM Satisfied

Find out if reported IC50 for Cc1ccc(C2=C(C#N)C(=O)NC(c3ccc(OCC(F)(F)F)cc3)(C(F)(F)F)C2)cc1 (stereo not shown) is less than 50 nM Satisfied

Find out if reported IC50 for CCCCCCC#CC1(C(F)(F)F)CC(c2ccc(C)cc2)=C(NC(=O)CNS(C)(=O)=O)C(=O)N1 (stereo not shown) is less than 50 nM Satisfied

Find out if reported IC50 for CCOc1ccc(C2=C(C#N)C(=O)NC(c3ccc(OCCCC(F)(F)F)cc3)(C(F)(F)F)C2)cc1F (stereo not shown) is less than 50 nM Satisfied

Find out if reported IC50 for COc1ccc(NC(=O)C2=C(c3ccc(C)cc3)CC(c3ccc(OCCCC(F)(F)F)cc3)(C(F)(F)F)NC2=O)cc1F (stereo not shown) is less than 50 nM Satisfied

Find out if reported IC50 for O=C1NC(c2ccc(OCCCC(F)(F)F)cc2)(C(F)(F)F)CC(c2ccccc2)=C1c1nn[nH]n1 (stereo not shown) is less than 50 nM Not satisfied

Find out if reported IC50 for CCCCCCCCCCCCCCCCNC(=O)C1(C)CC(c2ccc(C)cc2)=C(C(=O)Nc2ccc(OC)cc2)C(=O)N1 (stereo not shown) is less than 50 nM Not satisfied

Find out if reported IC50 for O=C1NC(c2ccc(OCCCC(F)(F)F)cc2)(C(F)(F)F)CC(c2ccc(-n3cccn3)cc2)=C1c1nn[nH]n1 (stereo not shown) is less than 50 nM Not satisfied

Find out if reported IC50 for Cc1ccc(C2=C(C(=O)Nc3nn[nH]n3)C(=O)NC(c3ccc(OCCC(F)(F)F)cc3)(C(F)(F)F)C2)cc1 (stereo not shown) is less than 50 nM Not satisfied

Find out if reported IC50 for Cc1ccc(C2=C(c3nn[nH]n3)C(=O)NC(c3ccc(OCCCC(F)(F)F)cc3)(C(F)(F)F)C2)c(F)c1 (stereo not shown) is less than 50 nM Satisfied

Find out if reported IC50 for Cc1ccc(C2=C(C(=O)Nc3ccc(F)cc3)C(=O)NC(c3ccc(OCc4ccccc4)cc3)(C(F)(F)F)C2)cc1 (stereo not shown) is less than 50 nM Satisfied

Find out if reported IC50 for Cc1ccc(C2=C(NC(=O)c3cc(Br)no3)C(=O)NC(c3ccc(OCCCC(F)(F)F)cc3)(C(F)(F)F)C2)cc1 (stereo not shown) is less than 50 nM Satisfied

Find out if reported IC50 for COc1ccc(C2=C(c3nn[nH]n3)C(=O)NC(c3ccc(OCCCC(F)(F)F)cc3)(C(F)(F)F)C2)c(F)c1 (stereo not shown) is less than 50 nM Satisfied

Find out if reported IC50 for CCn1nnc(C2=C(c3ccc(C)cc3)CC(c3ccc(OCCCC(F)(F)F)cc3)(C(F)(F)F)NC2=O)n1 (stereo not shown) is less than 50 nM Not satisfied

Find out if reported IC50 for Cc1ccc(C2=C(c3nn[nH]n3)C(=O)NC(c3ccc(OCC4CC(F)(F)C4)cc3)(C(F)(F)F)C2)cc1 (stereo not shown) is less than 50 nM Satisfied

Find out if reported IC50 for COc1ccc(C2=C(NC(=O)c3cc(C)no3)C(=O)NC(c3ccc(OCCCC(F)(F)F)cc3)(C(F)(F)F)C2)cc1 (stereo not shown) is less than 50 nM Satisfied

Find out if reported IC50 for Cc1ccc(C2=C(NC(=O)c3ccc(OC(F)F)cc3)C(=O)NC(c3cnn(CCCCCC(F)(F)F)c3)(C(F)(F)F)C2)cc1 (stereo not shown) is less than 50 nM Satisfied

Find out if reported IC50 for Cc1ccc(C2=C(C(=O)Nc3cc(C)[nH]n3)C(=O)NC(c3ccc(OCCC(F)(F)F)cc3)(C(F)(F)F)C2)cc1 (stereo not shown) is less than 50 nM Not satisfied

Find out if reported IC50 for Cc1ccc(NC(=O)C2=C(c3ccc(C)cc3)CC(c3ccc(OCCC(F)(F)F)cc3)(C(F)(F)F)NC2=O)cc1 (stereo not shown) is less than 50 nM Not satisfied

Find out if reported IC50 for COc1ccc(C2=C(NC(=O)CS(C)(=O)=O)C(=O)NC(c3ccc(OCCCC(F)(F)F)cc3)(C(F)(F)F)C2)cc1 (stereo not shown) is less than 50 nM Satisfied

Find out if reported IC50 for CCOP(=O)(CC(=O)NC1=C(c2ccc(C)cc2)CC(c2ccc(OCCCC(F)(F)F)cc2)(C(F)(F)F)NC1=O)OCC (stereo not shown) is less than 50 nM Satisfied

Find out if reported IC50 for COc1ccc(C2=C(c3nn[nH]n3)C(=O)NC(c3ccc(OCCCC(F)(F)F)cc3)(C(F)(F)F)C2)cc1 (stereo not shown) [Example 193] is less than 50 nM Satisfied
